experimental-target: T1, BoNT/B1 (Clostridium botulinum, UniProt P10844 2-1291)
T1 sequence: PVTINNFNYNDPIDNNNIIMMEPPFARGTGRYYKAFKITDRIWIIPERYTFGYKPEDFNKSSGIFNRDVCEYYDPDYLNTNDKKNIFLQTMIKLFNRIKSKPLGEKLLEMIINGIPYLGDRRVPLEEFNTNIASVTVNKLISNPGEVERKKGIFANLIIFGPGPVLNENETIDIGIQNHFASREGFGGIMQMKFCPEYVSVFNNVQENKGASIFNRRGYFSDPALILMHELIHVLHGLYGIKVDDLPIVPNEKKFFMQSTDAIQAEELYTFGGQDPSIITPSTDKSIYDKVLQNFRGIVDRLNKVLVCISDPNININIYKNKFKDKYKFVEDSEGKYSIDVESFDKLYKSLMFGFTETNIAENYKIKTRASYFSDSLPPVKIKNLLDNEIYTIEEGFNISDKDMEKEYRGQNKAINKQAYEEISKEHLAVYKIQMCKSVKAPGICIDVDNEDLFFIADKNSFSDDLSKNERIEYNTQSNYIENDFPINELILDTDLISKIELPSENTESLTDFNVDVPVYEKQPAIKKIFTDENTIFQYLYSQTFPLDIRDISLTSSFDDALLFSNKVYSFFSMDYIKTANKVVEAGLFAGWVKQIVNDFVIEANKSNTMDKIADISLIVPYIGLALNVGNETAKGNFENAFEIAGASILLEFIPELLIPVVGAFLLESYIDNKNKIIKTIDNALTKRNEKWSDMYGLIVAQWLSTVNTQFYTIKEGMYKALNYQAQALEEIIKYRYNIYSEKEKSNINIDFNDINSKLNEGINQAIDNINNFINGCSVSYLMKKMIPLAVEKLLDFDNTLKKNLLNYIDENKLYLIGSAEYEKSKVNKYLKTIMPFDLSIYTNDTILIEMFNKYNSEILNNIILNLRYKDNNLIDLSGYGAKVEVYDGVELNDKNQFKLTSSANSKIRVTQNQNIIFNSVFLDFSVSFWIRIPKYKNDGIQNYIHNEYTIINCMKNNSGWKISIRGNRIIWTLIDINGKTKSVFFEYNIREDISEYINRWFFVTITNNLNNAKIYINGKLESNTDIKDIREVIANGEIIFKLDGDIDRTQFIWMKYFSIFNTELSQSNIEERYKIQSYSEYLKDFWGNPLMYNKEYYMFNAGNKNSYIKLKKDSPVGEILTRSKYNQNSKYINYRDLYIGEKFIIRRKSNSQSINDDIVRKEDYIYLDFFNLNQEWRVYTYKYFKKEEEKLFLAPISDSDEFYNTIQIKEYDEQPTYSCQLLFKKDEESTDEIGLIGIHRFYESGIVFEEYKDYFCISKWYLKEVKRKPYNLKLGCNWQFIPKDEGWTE
assay-overview: yeast scFv FACS
recorded-endpoint: Kd (nM)
Only the number, expressed in nM, is required.

18A6 scFv (scFv, mouse) scFv: EVQLQQSGPELVKPGASVKISCKASGYTFTDNYINWVKQRPGQGLEWIGWIYPGSGNTKYNEKFKGKATLTVDTSSNTAYMQLTGLASDDSAVYFCARVNFYVSWDYWGQGTSVTVSSVDLKSGGSTSGSGKPGSGEGSSGSAREIVLTQSPAIMSASPGEKVTMTCSASSSISYMHWFQQKPGMSPKRRIFDTSKLASGVPARFSGSGSGTSYSLTISSMEAEDAGTYYCHQRSSYPFTFGGGTKLELK	14.5
16B3 scFv (scFv, mouse) scFv: EVQLQQSGPELVKPGASVKITCKASGYTFTDNNMDWVKQSHGKSLEWIGDINPNNGGSIYNQKFKGKASLTLDKSSSTAYMELRSLTSEDTAVYYCARWGYYGSLAYWGQGTLVTVSSVDLKSGGSTSGSGKPGSGEGSSGSARQNVLTQSPAIMSASPGEKVTMTCSASSSVSSRYLHWYQQKSGASPKLWIYGTSNLASGVPARFSGSGSGTSYSLTISSVEAEDAATYYCQQYHSDPLTFGGGTKLEIK	1.01

Okay, next one:
Sure, the documented Kd for 18E5 scFv (scFv, mouse) scFv: EVQLQESGPELVKPGASVKISCKASGYTFTDHNMDWVKQSLGKSLEWIGDINPNNGGAVYNQNFKGKATLTVDKSSSTAYMELRSLTSEDTAVYYCARYGYYGYFDYWGQGTTLTVSSVDLKSGGSTSGSGKPGSGEGSSGSARQIVLTQSPAIMSASPGEKVTMTCRASSSVSSSYLHWYQQKPGSSPKLWIYSTSNLASGVPARFSGSGSGTSYSLTISSVEAEDAATYYCQQYDSSPSTFGAGTKLEIK is 1.33
